- target.system: Protein farnesyltransferase (Rattus norvegicus) (UniProt Q04631+Q02293)
- assay.summary: Percentage cellular reversion of H-ras transformed Rat-1 cells at 100 nM
- Assay type: functional, cell-based
Strictly below 80% in Cellular reversion: rule met. Otherwise: rule not met.

Answered examples (6):
> print(dat)
                                   molecule         label
1  C=C(C)CN(C1Cc2cc(C#N)ccc2N(Cc2cncn2C)C1)S(C)(=O)=O (centres undefined)  rule not met
2  Cn1cncc1CN1CC(NS(=O)(=O)c2ccccc2)Cc2cc(C#N)ccc21 (centres undefined)      rule met
3  Cn1cncc1CN1CC(N(CCc2ccccc2)S(=O)(=O)c2ccccc2)Cc2cc(C#N)ccc21 (centres undefined)      rule met
4  Cn1cncc1CN1CC(N(Cc2ccccc2)S(=O)(=O)c2cccnc2)Cc2cc(C#N)ccc21 (centres undefined)  rule not met
5  Cn1cncc1CN1CC(N(CC(=O)OC(C)(C)C)S(=O)(=O)c2ccccn2)Cc2cc(C#N)ccc21 (centres undefined)  rule not met
6  Cn1cncc1CN1CC(N(Cc2ccccc2)S(=O)(=O)c2ccccc2)Cc2cc(C#N)ccc21 (centres undefined)  rule not met

Read the next record carefully.
Query: is_below(Cellular reversion, 80%) for Cn1cnc(S(=O)(=O)N(Cc2ccccc2)C2Cc3cc(C#N)ccc3N(Cc3cncn3C)C2)c1 (centres undefined) ?
Reply: rule met
